Would you mind telling me the reported pKd of each entry?
Biological target: TnmS2 (Streptomyces sp. CB03234)
Assay: fluorescence quenching
Type: binding
One number for each entry, as −log10 of the molar value.

compound="COc1ccc2c(c1O)C(=O)c1c3c(cc(O)c1C2=O)[C@@]12O[C@@]1([C@@H](C)O)[C@H](C#C/C=C\\C#C[C@H]2O)N3 [TNM A]" data_value=6.61

Here is another compound to look at.
Give the reported pKd for Cc1cc2nc3c(=O)[nH]c(=O)nc-3n(C[C@H](O)[C@H](O)[C@H](O)CO)c2cc1C [riboflavin] (system: TnmS2 (Streptomyces sp. CB03234)).
4.23

###

Target: (UniProt S2XVS8)
Sequence (S2XVS8 1-128): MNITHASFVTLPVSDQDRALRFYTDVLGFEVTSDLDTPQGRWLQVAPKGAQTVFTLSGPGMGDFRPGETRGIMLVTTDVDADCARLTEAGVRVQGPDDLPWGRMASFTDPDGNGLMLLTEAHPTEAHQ
Measurement kind: Kd (nM)
Answers are plain numbers, in nM.

Any idea what its Kd is? The compound is COc1ccc2c(c1O)C(=O)c1c3c(cc(O)c1C2=O)[C@@]12O[C@@]1([C@@H](C)O)[C@H](C#C/C=C\C#C[C@H]2O)N3 [TNM A]
164

###

Target: CBFG_04671 (Clostridium pacaense)
Measurement kind: Kd (µM)
Answers are plain numbers, in µM.

Give the reported Kd for COc1ccc2c(c1O)C(=O)c1c3c(cc(O)c1C2=O)[C@@]12O[C@@]1([C@@H](C)O)[C@H](C#C/C=C\C#C[C@H]2O)N3 (system: CBFG_04671 (Clostridium pacaense)).
0.855
